- Tested on: MS2 coat protein
- ASSAY_SUMMARY: apparent KD of MS2 coat protein; designed switch direction (-1 OFF switch, 1 ON switch): 1; higher = weaker reporter binding
- CONDITION_SET: input ligand: FMN 200 uM
PROPERTY_LABEL: apparent KD of MS2 coat protein (µM)
# unit: µM | format: bare number

Example results:
Data request: Please list apparent KD of MS2 coat protein recorded for the sequence AUUAUGUAUGCAGGAUAUGAUUAACAUGAGGAUCACCCAUGUGGUGUUGUGAGUAAGGAGAGUGAUCAGAAGGGCAUUUUUUUU [JMF's solution 64] (Eterna round: R96, puzzle: Same State NG 2)
Data returned: 0.555

Data request: Find the measured apparent KD of MS2 coat protein of UUAAUGAUGAUAGGAUAUACAUGAGGAAUCCUCGUAGAAGGAUCAUGACAUGAGGAUCACCCAUGUAACGCUCAGAAGAGCGUA [Mat - Same State NG 1 - JL mod - D42] (Eterna round: R96, puzzle: Same State NG 1) and report it.
Data returned: 0.205

Data request: Give apparent KD of MS2 coat protein for AUUGGGUAACGAGGAUAUCGUUUUUGUUUUCUUCGAGAAGGCGUUAUAGUUUAUUUCUAUUGUUACAUGAGGAUCACCCAUGUU [JR_SSNG1_Sub054] (Eterna round: R96, puzzle: Same State NG 1)
Data returned: 0.0152

More entries:
Data request: Please list apparent KD of MS2 coat protein recorded for the sequence GAGCCAGUCCGAGGAUAUUCAUAUACAUGAGGAUCACCCAUGUAGGCUCAGAAAAGAGAGCCUUGGGAGAAGGCGGACUGGCUC [Xeonanisa<<4] (Eterna round: R96, puzzle: Same State NG 2)
Data returned: 0.00838

Data request: Provide measured apparent KD of MS2 coat protein value, entry: CUGAGCGAUCAAGGAUAUCACGUCGUUUAGACGUGAGAAGGUGAUCCAUACAUGAGGAUCACCCAUGUAUAACAUGAAGCUCAG [SSNG1/8-A3] (Eterna round: R96, puzzle: Same State NG 1)
Data returned: 0.646

Data request: Look up and report measured apparent KD of MS2 coat protein for this entry: CGCAACGGCUGAGGAUAUGUCAACACGGGACGGGCAGAAGGUAGCAACCACCCACAUGAGGAUCACCCAUGUAUCCAAAUUCAC [Eternabot solution 38] (Eterna round: R96, puzzle: Same State NG 1)
Data returned: 0.0489

Data request: Supply apparent KD of MS2 coat protein value. Item: AGGCUCAGACGAGGAUAUAUGUGGUCACAUGAGGAUCACCCAUGUCUCGAGCUUCGGCUCGAGGCAUAGAAGGCGUCUGAGCCA [SSNG2/5-A1] (Eterna round: R96, puzzle: Same State NG 2)
Data returned: 0.662

Data request: State, in one line, measured apparent KD of MS2 coat protein of ACAUGAAAUGCAGGAUAUUUUGUACCUACAUGUGACAUGAGGAUCACCCAUGUGGUAAGUAUAAGAGAGAAGGGUAAGAUAUGU [Equivalence 3 - Jieux - Same State NG 2] (Eterna round: R96, puzzle: Same State NG 2)
Data returned: 0.0606

Data request: State its apparent KD of MS2 coat protein for this sequence: AACAGUCGGCGAGGAUAUGGACGUACGAACUUACCCGUGCGGCUCACAUGAGGAUCACCCAUGUUCUAGAAGGCGCCACUGAAA [Atbeon] (Eterna round: R96, puzzle: Same State NG 2)
Data returned: 0.0122

Data request: Report apparent KD of MS2 coat protein for AGUCCAGCCUGAGCUGGACUGAAGCAUGUACAUGAGGAUCACCCAUGUUCAUGUACAGGCUUUUUGCUCGUCUUAUG [JL-shm-2.02 JL mod] (Eterna round: R96, puzzle: Sensor for hsa-mir-208a)
Data returned: 0.619

Data request: Specify measured apparent KD of MS2 coat protein for GCGAGCGUACUUGCUACAUGAGGAUCACCCAUGUUUUAUGGACAGGAUAUGGUACCGUUUCGGUACCAGAAGGGUUCACAUGUG [JL SSNG3 3.82] (Eterna round: R96, puzzle: Same State NG 3) .
Data returned: 0.133

Data request: Identify measured apparent KD of MS2 coat protein associated with UGUUGUAUUACAGGAUAUCUAUUAGUUUCAUUUAGAGAAGGGUAUUCACAUGAGGAUCACCCAUGUAUAUACGAGGAAGUUGUG [JMF's solution 95] (Eterna round: R96, puzzle: Same State NG 1)
Data returned: 0.055

Data request: Specify measured apparent KD of MS2 coat protein for AGAUCAUGACGAGGAUAUGGAACAUGAGGAUCACCCAUGUAUGUUCCAUAACGCGAACGACGAAUCCAGAAGGCGUCGUGGUCA [JL SSNG2 1.09] (Eterna round: R96, puzzle: Same State NG 2) .
Data returned: 0.00715

Data request: Using the record for GAGUGGAGGAGAGGAUAUACAAUGAUAAUCACAGUAGAAGGUUCUAACAUGAGGAUCACCCAUGUAGGACUAUUCCUGAGAGUU [Parity 50 - Jieux - Same State NG 1] (Eterna round: R96, puzzle: Same State NG 1) , state its measured apparent KD of MS2 coat protein.
Data returned: 0.0108

Data request: State, in one line, measured apparent KD of MS2 coat protein of UCGGGCGUACUUGCAGACAUGAGGAUCACCCAUGUAAAUGGGAAGGAUAUGGUACCGUUUCGGUACCAGAAGGUCCUGGGUGCU [salish99_SSNG3_r04_308] (Eterna round: R96, puzzle: Same State NG 3)
Data returned: 0.81

Data request: Read the entry UUGCUCGUGUAAGGAUAUGCAGCCGUUUCGGCUGCAGAAGGUACUAUAAUACAUGAGGAUCACCCAUGUCUCUAUUAUUUAGUG [salish99_SSNG1_r04_925] (Eterna round: R96, puzzle: Same State NG 1) and write its reported apparent KD of MS2 coat protein.
Data returned: 0.043

Data request: Please look at this sequence and report its apparent KD of MS2 coat protein: GGAUCGGAGGCAGGAUAUGGGCUCAGAACAUGAGGAUCACCCAUGUAAAACGGCGCAAUGCGCCACCAGAAGGGCCUCCGACCG [Inmadibi] (Eterna round: R96, puzzle: Same State NG 2)
Data returned: 0.00862

Data request: Give reported apparent KD of MS2 coat protein value for CAGAGCCCAUGGGCCUGACAUGAGGAUCACCCAUGUGGCUUUGAGGAUAUAAGCGGAAACAGCGCUUAGAAGGCGAAGCCUAAC [Rearisve] (Eterna round: R96, puzzle: Same State NG 3)
Data returned: 0.157
